B1: KRT13 (parent)
chain: TPGIDLTRVLAEMREQYEAMAERN

variants of: B1; assay: protein stability index of a GFP-peptide fusion (GPS, HEK-293T) (PSI 1-6); higher = more stable; conditions: c terminus: a fixed tail appended;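 further: lentivirally expressed fusions sorted by FACS into six bins by GFP to DsRed ratio, PSI derived from sequencing read proportions per bin multiplied by bin number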
recorded.endpoint: protein stability index
Reply with the value as a number alone.

query: I am curious: what protein stability index value has been reported for T1M ?
result: 3.9

query: For E18I then?
result: 3.98

query: Repeat for the following variant: R8H
result: 4.05

query: Would you mind doing V9M as well?
result: 3.94
